Origin of values: patent US20260242478A1

Provide the recorded Anti-PSMA Fab (SEQ ID NOs: 19, 20) signal for the entries that follow.
Molecular target: T1, Anti-PSMA Fab (SEQ ID NOs: 19, 20)
T1 construct: Used biotinylated and captured on neutravidin coated plates; also called 006 PSMA Fab
Experiment: phage binding ELISA; biotinylated anti-PSMA Fab on neutravidin plate, clonal phage supernatant, anti-M13-HRP detection
Where no end group is shown, it is not given here.
The reply should be a number, written without any unit.

// lookup Anti-PSMA Fab (SEQ ID NOs: 19, 20) signal for SCGWLRGEEFGWWC (cysteine pairing not given here; also: displayed on phage as pIII fusion, pIII sequence, linker and fusion order not given here, also called Peptide-190; not shown: pIII coat protein of the bacteriophage to which the peptide is fused) [Phage-1718]
0.648

Query IRCVGEGHDLVCIF (cysteine pairing not given here; also: displayed on phage as pIII fusion, pIII sequence, linker and fusion order not given here, not shown: pIII coat protein of the bacteriophage to which the peptide is fused) [Phage-1712] next
2.36

Field entry: IAVLCQPNWMCAGF (cysteine pairing not given here; also: fused to phage pIII (clonal phage display), also called Peptide-180; not shown: pIII coat protein of the bacteriophage to which the peptide is fused) [Phage-1708]
0.997

Cool, now DCFYAADIHWNYCN (cysteine pairing not given here; also: displayed on phage as pIII fusion, pIII sequence, linker and fusion order not given here, not shown: pIII coat protein of the bacteriophage to which the peptide is fused) [Phage-1719]
1.88
